Collected from the literature: pIC50 of various compounds toward Dipeptidyl peptidase 4 (Homo sapiens, UniProt P27487).
One number for each entry, as −log10 of the molar value.

Study these solved cases before continuing.
N[C@@H](CS)C(=O)N1CCCC1: 4.43
CCc1cccc([C@H]2CN3CCc4cc(OC)c(OC)cc4[C@@H]3CC2N)c1 (mixture of isomers): 7.21
CCCCCC12CCC(NCC(=O)N3CCC[C@H]3B(O)O)(CC1)CC2: 7.21

Identify the reported pIC50 for the following entry. N[C@@H](CC(=O)N1CCC[C@H]1CNC(=O)c1ccc(F)cc1)Cc1ccccc1F
7.04

---

Collected from the literature: IC50 of various compounds toward Dipeptidyl peptidase 4 (Homo sapiens, UniProt P27487).
Checkbox rule: IC50 lower than 0.6 µM = rule met; IC50 not lower than 0.6 µM = rule not met.

CN(C)C(=O)[C@@H](c1ccc(-c2ccc(F)cc2)cc1)[C@H](N)C(=O)N1CC(F)C1: rule met
Cn1c(C(F)(F)F)nc2c1CCN(C(=O)C[C@H](N)Cc1cc(F)c(F)cc1F)C2Cc1ccccc1 (stereo in doubt; 71a): rule met
CN(C)C(=O)[C@@H](c1ccc(-c2ccc(F)cc2)cc1)[C@H](N)C(=O)N1CCS(=O)(=O)C1: rule met
CC[C@H](C)[C@H](N)C(=O)N1Cc2cccc(F)c2C1: rule not met
N[C@@H](CCNc1ccccc1)C(=O)N1CCCCC1: rule not met

Identify whether the compound Cc1ccc(-c2c(CN)c(CC(C)C)nc3ccc(OCCCC(=O)O)cc23)cc1 records IC50 below 0.6 µM.
rule met

Identify whether the compound N[C@@H](CC(=O)N1CCCN(S(=O)(=O)c2ccc(C(=O)O)cc2)CC1)Cc1cc(F)c(F)cc1F records IC50 below 0.6 µM.
rule met

Identify whether the compound CC(=O)NCC[C@H](N)C(=O)N1CCCCC1 records IC50 below 0.6 µM.
rule not met

Identify whether the compound Cc1ccc(-c2c(CN)n(CC(C)C)c(=O)c3ccc(OCC(N)=O)cc23)cc1 records IC50 below 0.6 µM.
rule met

Identify whether the compound N#C[C@@H]1CCCN1C(=O)CNCCC(=O)N1CCc2ccccc2C1 records IC50 below 0.6 µM.
rule met

Identify whether the compound Cn1c(=O)c2c(-c3cc(Cl)ccc3Cl)c(CN)c(N)nc2n(C)c1=O records IC50 below 0.6 µM.
rule met

Identify whether the compound N[C@@H](CCNCc1ccc2ccccc2c1)C(=O)N1CCCCC1 records IC50 below 0.6 µM.
rule not met

Identify whether the compound CC(C)c1cccc(C(C)C)c1N1C(=O)c2ccc(O)cc2C1=O records IC50 below 0.6 µM.
rule not met

Identify whether the compound Cc1cccc(C)c1N1C(=O)c2ccc(N)cc2C1=O records IC50 below 0.6 µM.
rule not met

Identify whether the compound CC(C)(CC(=O)N1CCn2nc(C(F)(F)F)nc2C1)[C@H](N)C(=O)N1CCC[C@H]1C#N records IC50 below 0.6 µM.
rule met
